MIC values by entry
# System: Bacillus subtilis ATCC 6633
# Assay remarks: ≥ marks a high value that may be exact or a test limit, other limits are often not marked, values filed in µg/mL are converted to µM

{"Compound": "CC(C)C[C@H](NC(=O)[C@H](Cc1c[nH]c2ccccc12)NC(=O)[C@H](CCCCN)NC(=O)[C@H](CC(C)C)NC(=O)[C@@H](N)CC(C)C)C(=O)N[C@@H](CCCCN)C(=O)N[C@@H](CCCCN)C(N)=O [LLKWLKK]", "System tested": "Bacillus subtilis ATCC 6633", "Endpoint name": "MIC", "Result": "≥ 108 µM"}

Ask | Report MIC for CC(C)C[C@H](NC(=O)[C@H](CC(C)C)NC(=O)[C@H](CCCCN)NC(=O)[C@H](CCCCN)NC(=O)[C@@H](NC(=O)[C@H](C)N)C(C)C)C(=O)N[C@@H](CCCN=C(N)N)C(=O)N[C@@H](Cc1c[nH]c2ccccc12)C(=O)N[C@@H](Cc1c[nH]c2ccccc12)C(=O)N[C@@H](CO)C(=O)N[C@@H](CCCN=C(N)N)C(=O)N[C@@H](Cc1c[nH]c2ccccc12)C(=O)N[C@@H](Cc1c[nH]c2ccccc12)C(=O)N[C@@H](CCCCN)C(=O)N[C@@H](CCCCN)C(=O)O [AVKKLLRWWSRWWKK] tested on Bacillus subtilis ATCC 6633.
Reply | ≥ 72.4 µM

Ask | Report MIC for CC[C@H](C)[C@@H]1NC(=O)[C@H](CO)NC(=O)[C@H](CCCCN)NC(=O)[C@H]([C@@H](C)O)NC(=O)[C@H](Cc2c[nH]c3ccccc23)NC(=O)[C@@H](NC(=O)CNC(=O)[C@H](CCCN=C(N)N)NC(=O)[C@H](CC(C)C)NC(=O)[C@H](C)NC(=O)[C@H](C)N)CSSC[C@@H](C(=O)N2CCC[C@H]2C(=O)NCC(=O)N[C@@H](CCCCN)C(=O)N[C@@H](CCCN=C(N)N)C(=O)O)NC(=O)[C@@H]2CCCN2C(=O)[C@H](CCCCN)NC(=O)[C@@H]2CCCN2C(=O)[C@@H]2CCCN2C1=O [AALRGCWTKSIPPKPCPGKR] tested on Bacillus subtilis ATCC 6633.
Reply | ≥ 46.2 µM

* * *

Observed MIC for Streptococcus mutans UA159, reported per entry below.

{"Compound": "CC(C)C[C@H](NC(=O)[C@H](CCCN=C(N)N)NC(=O)[C@H](Cc1ccccc1)NC(=O)[C@H](Cc1ccccc1)NC(=O)[C@@H](NC(=O)[C@H](CO)NC(=O)[C@@H](N)CC(C)C)[C@@H](C)O)C(=O)N[C@@H](Cc1ccccc1)C(=O)N[C@@H](CC(N)=O)C(=O)O [LSTFFRLFN]", "MIC": "≥ 224 µM"}

Ask | Suppose we examine the compound CC(C)C[C@H](NC(=O)CN)C(=O)N[C@@H](CC(C)C)C(=O)N[C@@H](Cc1c[nH]c2ccccc12)C(=O)N[C@@H](Cc1cnc[nH]1)C(=O)N[C@@H](CC(C)C)C(=O)N[C@@H](CC(C)C)C(=O)N[C@@H](Cc1cnc[nH]1)C(N)=O [GLLWHLLH] ; what MIC value has been reported?
Reply | ≥ 259 µM

Ask | Suppose we examine the compound C[C@@H](O)[C@H](NC(=O)[C@H](CO)NC(=O)[C@H](Cc1c[nH]c2ccccc12)NC(=O)[C@H](Cc1c[nH]c2ccccc12)NC(=O)[C@H](CO)NC(=O)[C@H](Cc1cnc[nH]1)NC(=O)[C@H](Cc1c[nH]c2ccccc12)NC(=O)[C@@H](N)Cc1c[nH]c2ccccc12)C(=O)N[C@@H](Cc1c[nH]c2ccccc12)C(N)=O [WWHSWWSTW] ; what MIC value has been reported?
Reply | ≥ 91.8 µM

Values compiled from DBAASP.
